- target or test system: Sialic acid-binding Ig-like lectin 9 (Homo sapiens)
- test method notes: Hs-Siglec9 ALPHAscreen SOP 20170721
- Design: scale not given: direction of the effect not stated beside the values
- applied conditions: 10 µM
Collected Percent Effect values appear next to each entry.

molecule: CS(=O)(=O)N1CCCCCC1C1CCN(c2ncccc2C#N)CC1 (stereo unspecified)
unit annotation: %
Percent Effect: 3.04

molecule: O=C(NCC1(CO)CC1)c1cccc2ccccc12
unit annotation: %
Percent Effect: -5.02

molecule: Cc1nc(C)n(CC2CCCCN2CC(=O)Nc2nncs2)n1 (stereo unspecified)
unit annotation: %
Percent Effect: 1.02

molecule: CS(=O)(=O)N1CCOC2(CCCN(c3cnccn3)C2)C1 (stereo unspecified)
unit annotation: %
Percent Effect: -4.89

molecule: CCSc1cc(C(=O)NCCC(=O)Nc2ccccn2)ccn1
unit annotation: %
Percent Effect: 1.7

molecule: COc1ccc(CN2C[C@@H](OCc3ccccn3)[C@H]3COC[C@H]32)cc1
unit annotation: %
Percent Effect: -1.37

* * *

- target or test system: Tyrosyl-tRNA synthetase, putative (Trypanosoma cruzi (strain CL Brener)) (UniProt Q4DSP6)
- Sequence (Q4DSP6 as listed by the source): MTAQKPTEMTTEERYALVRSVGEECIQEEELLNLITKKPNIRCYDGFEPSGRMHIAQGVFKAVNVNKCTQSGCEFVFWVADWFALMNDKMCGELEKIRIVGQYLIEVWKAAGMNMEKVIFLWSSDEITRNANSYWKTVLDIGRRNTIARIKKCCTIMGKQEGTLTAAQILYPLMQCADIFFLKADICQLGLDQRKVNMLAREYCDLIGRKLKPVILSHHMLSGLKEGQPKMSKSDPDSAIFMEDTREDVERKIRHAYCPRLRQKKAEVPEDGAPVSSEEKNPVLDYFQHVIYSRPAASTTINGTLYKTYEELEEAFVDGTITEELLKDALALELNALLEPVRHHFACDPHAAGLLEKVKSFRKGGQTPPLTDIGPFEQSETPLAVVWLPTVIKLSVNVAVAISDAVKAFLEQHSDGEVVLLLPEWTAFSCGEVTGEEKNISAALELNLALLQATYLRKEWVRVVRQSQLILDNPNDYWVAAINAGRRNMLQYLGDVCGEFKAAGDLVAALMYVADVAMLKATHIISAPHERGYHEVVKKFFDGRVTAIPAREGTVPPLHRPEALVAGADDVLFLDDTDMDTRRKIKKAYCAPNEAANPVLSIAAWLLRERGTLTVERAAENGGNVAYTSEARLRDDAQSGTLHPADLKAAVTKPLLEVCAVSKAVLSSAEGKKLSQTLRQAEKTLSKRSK
- test method notes: Trypanosoma cruzi tyrosyl tRNA synthetase (TcYRS) SOP
- Assay type: functional
- Set-up: scale not given: direction of the effect not stated beside the values
- applied conditions: 30 µM

compound: O=C1CCc2cc(C(=O)NCc3ccc(-n4cncn4)nc3)ccc2N1
target or test system: Tyrosyl-tRNA synthetase, putative (Trypanosoma cruzi (strain CL Brener)) (UniProt Q4DSP6)
Percent Effect (%): 1.24
//
compound: CC(Cn1cccn1)NCc1csc(-c2ccccc2F)n1 (configuration not stated)
target or test system: Tyrosyl-tRNA synthetase, putative (Trypanosoma cruzi (strain CL Brener)) (UniProt Q4DSP6)
Percent Effect (%): 11.1
//
compound: NC(=O)c1nnn(-c2ccc(Br)cc2)n1
target or test system: Tyrosyl-tRNA synthetase, putative (Trypanosoma cruzi (strain CL Brener)) (UniProt Q4DSP6)
Percent Effect (%): 6.41
//
compound: CCn1cc2c(n1)CN(Cc1ccncc1)CC2COCC1CC1 (configuration not stated)
target or test system: Tyrosyl-tRNA synthetase, putative (Trypanosoma cruzi (strain CL Brener)) (UniProt Q4DSP6)
Percent Effect (%): 11.5
//
compound: Cc1nc2n(n1)CC(Nc1cc(C(F)(F)F)nc3ncnn13)CC2 (configuration not stated)
target or test system: Tyrosyl-tRNA synthetase, putative (Trypanosoma cruzi (strain CL Brener)) (UniProt Q4DSP6)
Percent Effect (%): 17.5
//
compound: O=C(NCC(O)c1ccc(F)c(F)c1)c1cccnc1O (configuration not stated)
target or test system: Tyrosyl-tRNA synthetase, putative (Trypanosoma cruzi (strain CL Brener)) (UniProt Q4DSP6)
Percent Effect (%): 21
//
compound: Cc1ccc(C(=O)N2CCC3(CC2)NC(=O)CC3c2ccccc2)cn1 (configuration not stated)
target or test system: Tyrosyl-tRNA synthetase, putative (Trypanosoma cruzi (strain CL Brener)) (UniProt Q4DSP6)
Percent Effect (%): 5
//
compound: COC(=O)CCC(=O)N1CCC2(CN(Cc3cccc(F)c3)C2)C1
target or test system: Tyrosyl-tRNA synthetase, putative (Trypanosoma cruzi (strain CL Brener)) (UniProt Q4DSP6)
Percent Effect (%): -2.5
//
compound: CCc1nc(CN2CCCN(C(=O)CCc3ccco3)CC2)cs1
target or test system: Tyrosyl-tRNA synthetase, putative (Trypanosoma cruzi (strain CL Brener)) (UniProt Q4DSP6)
Percent Effect (%): 15.2
//
compound: Cc1nc2cc(=O)[nH]n2c(C)c1CC(=O)Nc1ccc2ccccc2n1
target or test system: Tyrosyl-tRNA synthetase, putative (Trypanosoma cruzi (strain CL Brener)) (UniProt Q4DSP6)
Percent Effect (%): 12.2
//
compound: Cc1noc(CCCC(=O)NC(C)c2cn(-c3ccccc3)nn2)n1 (configuration not stated)
target or test system: Tyrosyl-tRNA synthetase, putative (Trypanosoma cruzi (strain CL Brener)) (UniProt Q4DSP6)
Percent Effect (%): 4.88
//
compound: O=C(c1ccsc1)N1CCc2c(CNc3ncccn3)n[nH]c2C1
target or test system: Tyrosyl-tRNA synthetase, putative (Trypanosoma cruzi (strain CL Brener)) (UniProt Q4DSP6)
Percent Effect (%): 7.5
